- Tested on: UO-31 renal
- PROCEDURE SUMMARY: NCI-60 one-dose screen, 48 h (100 = growth as untreated, 0 = no growth, -100 = all killed)
- PARTICULARS: 10 µM
Compounds without any hit were thinned out: in the full panel of roughly 83,000, 20% have a hit. Active and inactive are the calls of the source. How the source made its calls: active means growth percent below 10; inactive means the rest.
Please provide measured growth for the entries that follow.

Solved entries:
>  <SMILES STRUCTURE>
C/C(O)=C(\C=N\C(N)=S)C(=O)Nc1ccccc1

>  <EXPERIMENTAL RESULT>
91.5% (inactive)

$$$$
>  <SMILES STRUCTURE>
NCC(=O)CCC(=O)O

>  <EXPERIMENTAL RESULT>
94.6% (inactive)

$$$$

Below: the item to evaluate.
CC(=O)NCc1cc(C)c(C)cc1C has a reported growth of 83.6% (inactive)
